Below is a list of entries, each paired with its recorded mass density value.
conditions: 338.15 K; 100 kPa; Liquid; Vibrating tube method
Numbers after ± are expanded uncertainties.
OBSERVED_PROPERTY: mass density

> print(dat)
                                   molecule           data.value
1  CCCCC(=O)[O-].CN(C)C(=[NH2+])N(C)C [1,1,3,3-tetramethylguanidinium pentanoate]   979.53 ± 2.1 kg/m3
2  CCCCCCC(=O)[O-].CN(C)C(=[NH2+])N(C)C [1,1,3,3-tetramethylguanidinium heptanoate]   954.06 ± 2.1 kg/m3
3  CCCC(=O)[O-].CN(C)C(=[NH2+])N(C)C [1,1,3,3-tetramethylguanidinium butanoate]  1000.67 ± 2.1 kg/m3
4  CCCCCC(=O)[O-].CN(C)C(=[NH2+])N(C)C [1,1,3,3-tetramethylguanidinium hexanoate]   966.22 ± 2.1 kg/m3
5  CCCCCCCC(=O)[O-].CN(C)C(=[NH2+])N(C)C [1,1,3,3-tetramethylguanidinium octanoate]   938.85 ± 2.1 kg/m3
